# Test Target: Hypoxia inducible factors; HIF-1-alpha, HIF-2-alpha (Homo sapiens, UniProt Q16665+Q99814)
# Experiment: Inhibition of hypoxia-induced HIF1 activation in human LN229 cells expressing HRE-AP reporter gene preincubated for 1 hr under normoxia condition followed by 24 hrs incubation under hypoxia condition by HRE-luciferase reporter assay
# Type: cell-based
Endpoint: IC50 (µM)
Response body: numeric value in µM, unit text excluded.

# annotated cases, reported IC50 shown
Smiles Text | Quantitative Result
COc1cc(OC)cc(S(=O)(=O)N(Cc2ccc3c(c2)C=CC(C)(C)O3)CC(C)C)c1 | 1.011
CC(C)CN(Cc1ccc2c(c1)C=CC(C)(C)O2)S(=O)(=O)c1cc(Cl)ccc1Cl | 0.731

Would you kindly look at the next entry?
Input line: Tell me the measured IC50 of COc1ccc(S(=O)(=O)N(Cc2ccc3c(c2)C=CC(C)(C)O3)c2ccccc2)cc1OC , please.
Output line: 0.593
